Tested on: L6
Assay: Cytotoxic activity against rat L6 cells assessed as reduction in cell viability incubated for 6 days by Alamar blue assay
Format: cell-based
Details: L6, 144 h
Result type: IC50 (nM)

compound="CCCCCCNCC(O)COc1ccc(C23CC4CC(C2)CC(c2ccc(OCC(O)CNCCCCCC)cc2)(C4)C3)cc1 (centres undefined)" measured_result=450
compound="OC(COc1ccc(C23CC4CC(C2)CC(c2ccc(OCC(O)CN5CCCCC5)cc2)(C4)C3)cc1)CN1CCCCC1 (centres undefined)" measured_result=270
compound="CN1CCN(CC(O)COc2ccc(C34CC5CC(C3)CC(c3ccc(OCC(O)CN6CCN(C)CC6)cc3)(C5)C4)cc2)CC1 (centres undefined)" measured_result=260
compound="CN1CCN(CC(O)COc2ccc(C3(c4ccc(OCC(O)CN5CCN(C)CC5)cc4)C4CC5CC(C4)CC3C5)cc2)CC1 (centres undefined)" measured_result=540

====

Tested on: Mycobacterium tuberculosis
Assay: Antimycobacterial activity against Mycobacterium tuberculosis assessed as inhibition of parasite growth at 1 ug/ml incubated for 6 days by REMA method relative to untreated control
Type: functional
Conditions: 144 h
# inhibition at 1 µg/mL per entry
Result type: inhibition at 1 µg/mL (%)

compound="CN1CCN(CC(O)COc2ccc(C34CC5CC(C3)CC(c3ccc(OCC(O)CN6CCN(C)CC6)cc3)(C5)C4)cc2)CC1 (centres undefined)" measured_result=5
compound="CCCCCCNCC(O)COc1ccc(C23CC4CC(C2)CC(c2ccc(OCC(O)CNCCCCCC)cc2)(C4)C3)cc1 (centres undefined)" measured_result=0
compound=CN1CCN(CCOc2ccc(C3(c4ccc(OCCN5CCN(C)CC5)cc4)C4CC5CC(C4)CC3C5)cc2)CC1 measured_result=0.04
compound="CCCCNCC(O)COc1ccc(C23CC4CC(C2)CC(c2ccc(OCC(O)CNCCCC)cc2)(C4)C3)cc1 (centres undefined)" measured_result=50

====

Test system: Mycobacterium tuberculosis
Test: Antimycobacterial activity against Mycobacterium tuberculosis assessed as inhibition of parasite growth at 1 ug/ml incubated for 6 days by REMA method relative to untreated control
Assay type: functional
Settings: 144 h
Below is a list of entries, each paired with its recorded inhibition at 1 µg/mL value.
Result type: inhibition at 1 µg/mL (%)

molecule="CO[C@H]1/C=C/O[C@@]2(C)Oc3c(C)c(O)c4c(O)c(c(/C=N/N5CCN(C)CC5)c(O)c4c3C2=O)NC(=O)/C(C)=C\\C=C\\[C@H](C)[C@H](O)[C@@H](C)[C@@H](O)[C@@H](C)[C@H](OC(C)=O)[C@@H]1C [RIFAMPIN]" measured_result=13
molecule="OC(COc1ccc(C23CC4CC(C2)CC(c2ccc(OCC(O)CN5CCCCC5)cc2)(C4)C3)cc1)CN1CCCCC1 (stereo not drawn)" measured_result=0.17
molecule="CC[C@@H](CO)NCCN[C@@H](CC)CO [ETHAMBUTOL]" measured_result=0

====

Test system: L6
Experiment: Cytotoxic activity against rat L6 cells assessed as reduction in cell viability incubated for 6 days by Alamar blue assay
Format: cell-based
Conditions: L6, 144 h
pIC50: −log10 of the molar value.
Result type: pIC50

compound=CN1CCN(CCOc2ccc(C3(c4ccc(OCCN5CCN(C)CC5)cc4)C4CC5CC(C4)CC3C5)cc2)CC1 result_type=pIC50 measured_result=6.48
compound="CCCCNCC(O)COc1ccc(C23CC4CC(C2)CC(c2ccc(OCC(O)CNCCCC)cc2)(C4)C3)cc1 (stereo not drawn)" result_type=pIC50 measured_result=6.26
compound="CN(C)CC(O)COc1ccc(C23CC4CC(C2)CC(c2ccc(OCC(O)CN(C)C)cc2)(C4)C3)cc1 (stereo not drawn)" result_type=pIC50 measured_result=6.54

Reference for the values: ChEMBL document CHEMBL4392856
